system: ACVRL1; settings: concentration: 1 μM, replicates: in singlicate; n = 1;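 also: KINOMEscan kinase panel screen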
property_measured: %Inh (%)
Unit % implied. Number only.

Data request: Name the recorded %Inh for Nc1nccc2scc(-c3ccc4c(c3)CCN4C(=O)Cc3cc(F)ccc3F)c12 [GSK2587663] .
Data returned: 0

Data request: Name the recorded %Inh for COc1ccc(NC(=O)Nc2ccc(C)c(-c3ccc(C(=O)Nc4ccncc4)cc3)c2)cc1 [GSK1398475] .
Data returned: 0

Data request: Name the recorded %Inh for CS(=O)(=O)CCNCc1nc(-c2ccc3ncnc(Nc4ccc(OCc5cccc(F)c5)c(Cl)c4)c3c2)cs1.Cl [GW583340] .
Data returned: 0

Data request: Name the recorded %Inh for CN1CCC(n2cnc(-c3ccc(F)cc3)c2-c2ccnc(NC3CCNCC3)n2)CC1 [SB-229482] .
Data returned: 7

Data request: Name the recorded %Inh for O=C(Nc1ccccc1F)NC1CCN(c2ccnc(Nc3ccc(F)cc3)n2)C1 (centres unmarked) [GSK1379722] .
Data returned: 0

====

tested on: EPHB2; conditions: concentration: 1 μM, replicates: in singlicate; n = 1
property_measured: %Inh (%)
Unit % implied. Number only.

Data request: Name the recorded %Inh for CNc1nccc(-c2c(-c3ccc(F)cc3)ncn2C2CCN(C)CC2)n1 .
Data returned: 0

Data request: Name the recorded %Inh for COc1ccc(Nc2nccc(N3CCC(NC(=O)Nc4ccc5c(c4)OCO5)C3)n2)cc1 (stereo not drawn) .
Data returned: 0

Data request: Name the recorded %Inh for CC(=O)Nc1n[nH]c2ncc(-c3ccccc3)cc12 .
Data returned: 0

Data request: Name the recorded %Inh for C[C@@H]1CCN(C(=O)CO)C[C@@H]1N(C)c1ncnc2[nH]ccc12 .
Data returned: 0

Data request: Name the recorded %Inh for COc1cc2c(Nc3cccc(NC(=O)c4ccccc4)c3)ncnc2cc1OCCCN1CCOCC1 .
Data returned: 0

Data request: Name the recorded %Inh for Fc1cccc(COc2ccc(Nc3ncnc4sc(-c5ccc[nH]5)cc34)cc2Cl)c1 .
Data returned: 15

Data request: Name the recorded %Inh for c1ccc(-c2ccc3c(-c4ccnc(Nc5ccc6c(c5)OCCO6)n4)cnn3n2)cc1 .
Data returned: 3

Data request: Name the recorded %Inh for Nc1nc(-c2cccnc2)c(-c2ccnc3ccccc23)s1 .
Data returned: 0

Data request: Name the recorded %Inh for Cl.O=S(=O)(c1cccc(F)c1)c1ccc(Nc2ncnc3cc(Br)sc23)cc1Cl .
Data returned: 42

====

system: CDC2L5; construct: gene CDK13; conditions: concentration: 1 μM, replicates: in singlicate; n = 1
Can you tell me %Inh for the items I'm about to list?
Unit % implied. Number only.

Data request: Name the recorded %Inh for O=C(Nc1ccccc1)Nc1ccc(Oc2ccc3nccn3n2)cc1 .
Data returned: 0

Data request: Name the recorded %Inh for Fc1cccc(COc2ccc(Nc3ncnc4cc[nH]c34)cc2Cl)c1 .
Data returned: 0

Data request: Name the recorded %Inh for Cl.c1ccc(Cn2ncc3cc(Nc4ncnc5ccccc45)ccc32)cc1 .
Data returned: 0

Data request: Name the recorded %Inh for Clc1cccc(-c2nc(Nc3ccncc3)c3ccccc3n2)c1 .
Data returned: 15

Data request: Name the recorded %Inh for COc1ccc(NC(=O)Nc2ccc(C)c(-c3ccc(C(=O)Nc4ccncc4)cc3)c2)cc1 .
Data returned: 0

Data request: Name the recorded %Inh for Cc1ccc(O)cc1Nc1cc(C(F)(F)F)nc2ccc(-c3ccncc3)cc12 .
Data returned: 0

Data request: Name the recorded %Inh for CCn1c(-c2ccncc2)nc2cnccc21 .
Data returned: 28

Data request: Name the recorded %Inh for O=C(c1ccc(-c2cc(-c3c[nH]nc3-c3ccccn3)ccn2)cc1)N1CCCC1 .
Data returned: 15
